TEST_METHOD_NOTES: Efflux ratio of apparent permeability in human Caco2 cells at 2 uM after 2 hrs by LC-MS/MS analysis
MEASUREMENT_CONDITIONS: Caco-2
Catalogue of compounds with associated efflux ratio at 2 h, 2 µM
Reply: number alone, nothing else.

Data request: Reported efflux ratio at 2 h, 2 µM for CCNC(=O)c1cc2c(N3CCOCC3c3ccccc3)ccnc2[nH]1 (stereo not drawn) : what is it?
Data returned: 1.4

Data request: How about this compound: CCNC(=O)c1cc2c(N3CCOCC3C3CC3)ccnc2[nH]1 (stereo not drawn)
Data returned: 3.3

Data request: How about this compound: CCNC(=O)c1cc2c(N3CCCC3C(C)(C)OC)ccnc2[nH]1 (stereo not drawn)
Data returned: 1.3

###

TEST_METHOD_NOTES: Efflux ratio of permeability in human Caco2 cells at 10 uM after 60 mins by LC-MS/MS analysis
MEASUREMENT_CONDITIONS: Caco-2
Binning of efflux ratio at 1 h, 10 µM into classes: LOW (below 0.9), MEDIUM (0.9 to below 5), HIGH (5 or more)

{"COMPOUND": "CCNC(=O)c1cc2c(N3CCCC3c3ccccn3)ccnc2[nH]1 (configuration not stated)", "ASSIGNED_LABEL": "MEDIUM"}
{"COMPOUND": "c1cncc(C2CCCN2c2ccnc3[nH]ncc23)c1 (configuration not stated)", "ASSIGNED_LABEL": "MEDIUM"}
{"COMPOUND": "c1ccc(C2CCCN2c2ccnc3[nH]ncc23)cc1 (configuration not stated)", "ASSIGNED_LABEL": "LOW"}
{"COMPOUND": "O=C(NC1COC1)c1cc2c(N3CCCC3c3ccccn3)ccnc2[nH]1 (configuration not stated)", "ASSIGNED_LABEL": "HIGH"}
{"COMPOUND": "CCNC(=O)c1cc2c(N3CCCC3c3cccnc3)ccnc2[nH]1 (configuration not stated)", "ASSIGNED_LABEL": "HIGH"}

Data request: The entry to classify is CCNC(=O)c1cc2c(N3CCCC3c3ccccc3)ccnc2[nH]1 (configuration not stated) ; which class holds it?
Data returned: MEDIUM

Data request: How about this compound: O=C(NC1CC1)c1cc2c(N3CCCC3c3ccccn3)ccnc2[nH]1 (configuration not stated)
Data returned: HIGH

Data request: How about this compound: c1ccc(C2CCCN2c2ccnc3[nH]ccc23)cc1 (configuration not stated)
Data returned: LOW

Data request: How about this compound: `O=C(NC1CC1)c1cc2c(-c3cccc(Cl)c3)ccnc2[nH]1`
Data returned: MEDIUM

Data request: How about this compound: c1ccc(C2COCCN2c2ccnc3[nH]ncc23)cc1 (configuration not stated)
Data returned: LOW

###

TEST_METHOD_NOTES: Apparent permeability across apical to basolateral side in human Caco2 cells at 2 uM after 2 hrs by LC-MS/MS analysis
Type: ADME, cell-based
MEASUREMENT_CONDITIONS: Caco-2
OBSERVATION_TYPE: Papp A→B at 2 h, 2 µM

{"MOLECULE": "CCNC(=O)c1cc2c(N3CCOCC3C3CC3)ccnc2[nH]1 (centres undefined)", "OBSERVATION_TYPE": "Papp A→B at 2 h, 2 µM", "TEST_RESULT": "24 ×10⁻⁶ cm/s"}
{"MOLECULE": "CCNC(=O)c1cc2c(N3CCOCC3c3ccccc3)ccnc2[nH]1 (centres undefined)", "OBSERVATION_TYPE": "Papp A→B at 2 h, 2 µM", "TEST_RESULT": "63 ×10⁻⁶ cm/s"}
{"MOLECULE": "CCNC(=O)c1cc2c(N3CCOC[C@@H]3C)ccnc2[nH]1", "OBSERVATION_TYPE": "Papp A→B at 2 h, 2 µM", "TEST_RESULT": "148 ×10⁻⁶ cm/s"}

Continue with the next molecule.
Data request: Reported Papp A→B at 2 h, 2 µM for CCNC(=O)c1cc2c(N3CCCC3C(C)(C)OC)ccnc2[nH]1 (centres undefined) : what is it?
Data returned: 170 ×10⁻⁶ cm/s
